Origin of values: PubChem BioAssay (NCI)

Please go through the items and note down their GI50.
Test system: ACHN renal
TEST SUMMARY: NCI tumour cell line growth inhibition, 48 h

COc1ccc(/C(C)=C(\c2ccc(Cl)cc2)c2ccc(OCCN3CCCC3)cc2)cc1: 5100 nM
NC(=O)CCC(NC(=O)OCc1ccccc1)C(=O)OCC(=O)c1ccccc1 (stereo not given): > 100000 nM

Respectfully, I request GI50 for each entry included below.
1. CCN(CC)CCN1C(=O)c2c(c(C)c3c(oc4cc(O)ccc43)c2C)C1=O
2. Cn1nc(C(F)(F)F)c(-c2ccc(Cl)c(C(F)(F)F)c2)c1-c1ccc(OCc2ccc(Cl)cc2)cc1O
3. Cn1c2ccccc2c(=Nc2ccccc2)c2c3ccccc3[nH]c21

(A)
1: 1560 nM; 2: 1610 nM; 3: 755 nM

----------
Test system: OVCAR-4 ovarian
TEST SUMMARY: NCI tumour cell line growth inhibition, 48 h
Please respond with reported TGI for every item in the list.

Some entries whose results are on file:
S=c1nc(-c2nc(=S)[nH]c3c2CCCCCCCCCC3)c2c([nH]1)CCCCCCCCCC2: > 100 µM
C#CCN1C(=O)/C(=c2\sc3n(c2=O)C2C(NN=3)N(CC)C(=O)N2CC)c2ccccc21 (stereo not given): > 100 µM
CCOC1OCCCC1Br (stereo not given): > 100 µM
Cc1ccc2nc3c(C)c(Cl)c(=O)cc-3sc2c1: > 100 µM
COC(=O)C1=C(O)C(C(=O)OC)[C@@]2(O)[C@@H](C(=O)OC)C(c3ccc(OC(=O)/C(=C/c4ccc(Cl)cc4)c4ccc(Cl)cc4)cc3)C[C@@H]1[C@@H]2C(=O)OC (stereo not given in full): > 100 µM
COc1ccc(C2(c3ccc(OC)cc3)OC(=O)c3cccc4cccc2c34)cc1: > 100 µM
CC1(C)N=C(N)N=C(N)N1c1cccc(C#N)c1: > 100 µM
Nc1ccc(-c2nc3ccc4[nH]ncc4c3c3c2CCCC3)cc1F: 23.5 µM

Required: TGI, one value per compound below.
1. CCCCC[C@@H]1OCO[C@@]2(C)/C=C(C)/C=C/C(=O)O[C@H]([C@@H](C)[C@@H](O)[C@H](C)[C@@]3(O)C[C@@H](O[C@H]4C[C@@H](O)[C@H](O)[C@@H](C)O4)[C@H](C)[C@@H](C)O3)[C@@H](OC)/C=C/C=C(\C)C[C@@H]1[C@@H]2O (stereo in doubt)
2. Cc1ccc(C(=O)N(C(C)C)C(C)C)cc1N=NN(C)C

(A)
["8.38 µM", "> 100 µM"]

----------
Test system: UACC-257 melanoma
TEST SUMMARY: NCI tumour cell line growth inhibition, 48 h; in the data active = GI50 below about 0.43 µM; inactive = the rest
Log the outcome using a class from t (active), f (inactive)

The following molecules have reported results that may help.
COc1ccc(N2CCN(C(=O)c3ccccc3Nc3ccnc(C(F)(F)F)c3)CC2)cc1: f
COc1ccc(OC)c(-c2nc3sccn3c2/C=C2/C(=O)Nc3ccc(Cl)cc32)c1: f
Oc1ccc2oc3ncc(Cl)c(-c4ccccc4)c3c2c1: f
CCSc1oc(-c2ccccc2)nc1[P+](c1ccccc1)(c1ccccc1)c1ccccc1: t

(Q) How was COc1ccc(-c2ccc3c(NC(=O)C4CC4)n[nH]c3n2)cc1 classified in this test?
(A) f

----------
Tested on: MCF7 breast
TEST SUMMARY: NCI tumour cell line growth inhibition, 48 h; in the data active means GI50 below about 0.43 µM; inactive means the rest
A correct response names exactly one class from active, inactive

Here are 5 compounds together with their reported answers.
COc1ccc(-c2ccc(/C=C/C(=O)NO)cc2)cc1: inactive
N#Cc1c(NC(=O)c2ccccc2)sc2c1CCC(=O)C2: inactive
OC(c1ccc(Cl)cc1)(c1ccc(Cl)cc1)C(O)(c1ccc(Cl)cc1)c1ccc(Cl)cc1: inactive
COc1ccc(-c2ccc3c(NC(=O)C4CC4)n[nH]c3n2)cc1: inactive
Nc1ccc(-c2nc3ccc4[nH]ncc4c3c3c2CCCC3)cc1F: inactive

(Q) // param item: CC(=O)Oc1ccc(OC(C)=O)c2ccccc12 ; yields the recorded call
(A) inactive

(Q) How about CCCCCCCCCCCCn1c(C)nc2ccccc21 ?
(A) inactive
